molecular target: Fibroblast growth factor receptor 2 (Homo sapiens, UniProt P21802)
Sequence (P21802 whole entry): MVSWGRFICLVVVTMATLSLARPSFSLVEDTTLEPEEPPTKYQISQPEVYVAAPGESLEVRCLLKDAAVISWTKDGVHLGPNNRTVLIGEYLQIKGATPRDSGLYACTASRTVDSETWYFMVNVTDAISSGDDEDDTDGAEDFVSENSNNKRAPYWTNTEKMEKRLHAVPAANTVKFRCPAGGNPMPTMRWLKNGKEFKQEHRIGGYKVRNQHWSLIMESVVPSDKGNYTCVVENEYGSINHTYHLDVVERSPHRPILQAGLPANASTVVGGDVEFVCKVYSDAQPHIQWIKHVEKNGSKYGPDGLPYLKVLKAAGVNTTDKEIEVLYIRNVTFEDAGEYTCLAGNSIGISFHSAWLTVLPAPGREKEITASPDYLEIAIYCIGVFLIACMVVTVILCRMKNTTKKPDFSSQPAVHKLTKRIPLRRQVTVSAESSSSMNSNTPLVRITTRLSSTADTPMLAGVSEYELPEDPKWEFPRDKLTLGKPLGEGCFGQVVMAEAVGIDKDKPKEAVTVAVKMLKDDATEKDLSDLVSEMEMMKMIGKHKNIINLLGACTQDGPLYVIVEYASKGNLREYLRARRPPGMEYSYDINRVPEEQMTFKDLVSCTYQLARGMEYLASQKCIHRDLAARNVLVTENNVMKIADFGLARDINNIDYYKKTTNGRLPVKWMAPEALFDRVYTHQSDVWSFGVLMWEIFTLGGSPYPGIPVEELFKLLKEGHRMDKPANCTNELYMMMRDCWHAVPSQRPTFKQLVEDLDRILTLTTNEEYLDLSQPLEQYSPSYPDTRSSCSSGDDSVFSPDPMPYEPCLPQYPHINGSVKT
pIC50: −log10 of the molar value.
endpoint label: pIC50

1) C=CC(=O)N1CCC(c2cc3c(Oc4ccc(NC(=O)NC5CC5)c(Cl)c4)ccnc3cc2OCC)CC1 ... 8.28

====

test system: Hep 3B2; test: Antiproliferative activity against human Hep3B cells incubated for 72 hrs by Cell counting kit 8 method; assay type: functional, cell-based
# key: entry, value: log10 IC50
endpoint label: log10 IC50 (log10 of the value in nM)

1) COc1cc2nccc(Oc3ccc(NC(=O)NC4CC4)c(Cl)c3)c2cc1C1CCN(C(=O)/C=C/CN(C)C)CC1 ... 1.48
2) C=CC(=O)N1CCC(c2cc3c(Oc4ccc5c(C(=O)NC)cccc5c4)ccnc3cc2OC)CC1 ... 2.10
3) C=CC(=O)N1CC=C(c2cc3c(Oc4ccc(NC(=O)NC5CC5)c(Cl)c4)ccnc3cc2OC)C1 ... 2.64
4) COc1cc2nccc(Oc3ccc(NC(=O)NC4CC4)c(Cl)c3)c2cc1C1=CCN(C(=O)CCl)CC1 ... 3.22
5) C=CC(=O)N1CCC(c2cc3c(Oc4ccc(NC(=O)NC5CC5)c(OCC)c4)ccnc3cc2OC)CC1 ... 2.71
6) C=CC(=O)N1CC=C(c2cc3c(Oc4ccc(NC(=O)NC5CC5)c(Cl)c4)ccnc3cc2OC)CC1 ... 1.82
7) C=CC(=O)N1CCC(c2cc3c(Oc4ccc(NC(=O)Cc5ccccc5)cc4F)ccnc3cc2OC)CC1 ... 3.13
8) C=CC(=O)N1CCC(c2cc3c(Oc4ccc(NC(=O)NC5CC5)c(Cl)c4)ncnc3cc2OC)CC1 ... 1.86
9) C=CC(=O)N1CCC(c2cc3c(Oc4ccc(NC(=O)C5(C(=O)Nc6ccc(F)cc6)CC5)cc4)ccnc3cc2OC)CC1 ... 3.59
10) C=CC(=O)N1CCC(c2cc3c(Oc4ccc(NC(=O)NC5CC5)c(Cl)c4)ccnc3cc2OCC(F)(F)F)CC1 ... 1.48
11) C=CC(=O)N1CCC(c2cc3c(Oc4ccc(NC(=O)Nc5cc(C)on5)c(Cl)c4)ccnc3cc2OC)CC1 ... 2.82
12) C=CS(=O)(=O)N1CC=C(c2cc3c(Oc4ccc(NC(=O)NC5CC5)c(Cl)c4)ccnc3cc2OC)CC1 ... 3.71
13) C=CC(=O)N1CCC(c2cc3c(Oc4ccc(NC(=O)NC5CC5)c(Cl)c4)ccnc3cc2OC(C)C)CC1 ... 1.80
14) C=CC(=O)N1CCC(c2cc3c(Oc4ccc(NC(=O)NC5CC5)c(F)c4)ccnc3cc2OC)CC1 ... 1.48
15) C=CC(=O)N1CCC(c2cc3c(Nc4ccc(OCc5ccccn5)c(Cl)c4)ccnc3cc2OC)CC1 ... 3.60
16) C=CC(=O)N1CCC(c2cc3c(Oc4ccc(NC(=O)NC5CC5)c(Cl)c4)ccnc3cc2OC)CC1 ... 1.72
17) C=CC(=O)N1CCC(c2cc3c(Oc4ccc(NC(=O)c5c(C)n(C)n(-c6ccccc6)c5=O)cc4F)ccnc3cc2OC)CC1 ... 2.65
18) C=CC(=O)N1CCC(c2cc3c(Oc4cc5cc(C)[nH]c5cc4F)ccnc3cc2OC)CC1 ... 2.50
19) [2H]C([2H])([2H])Oc1cc2nccc(Oc3ccc(NC(=O)NC4CC4)c(Cl)c3)c2cc1C1CCN(C(=O)C=C)CC1 ... 1.86
